Assign MIC to each entry below.
system: S. aureus ATCC25923; assay: microbe, parasite or virus in culture; details: Staphylococcus aureus, ATCC25923
Give your result as the value with the unit written after it.

1) CC(C)(O/N=C(\C(=O)N[C@@H]1C(=O)N2C(C(=O)[O-])=C(C[n+]3ccccc3)CS[C@H]12)c1csc(N)n1)C(=O)O [Ceftazidime, reference compound] = 16 µg/mL
2) O=C(O)c1cn(C2CC2)c2cc(N3CCNCC3)c(F)cc2c1=O [Ciprofloxacin, reference compound] = 0.1 µg/mL
3) C[C@@H](O)[C@H]1C(=O)N2C(C(=O)O)=C(SCCN=CN)C[C@H]12 [Imipenem, reference compound] = 0.1 µg/mL

Now for a further compound.
Which measured MIC value corresponds to NC[C@H]1O[C@H](O[C@H]2[C@H](O)[C@@H](O[C@H]3O[C@H](CO)[C@@H](O)[C@H](N)[C@H]3O)[C@H](N)C[C@@H]2N)[C@H](N)C[C@@H]1O [Tobramycin, reference compound] ?
0.3 µg/mL

----------
Assign MIC to each entry below.
tested on: E. faecalis ATCC29212; assay: microbe, parasite or virus in culture; conditions: ATCC29212
Square brackets hold non-standard residues; d marks the D form. Peptide text beside a SMILES is read from it. Nspe = C[C@H](NCC(=O)O)c1ccccc1; Nlys = NCCCCNCC(=O)O
Give bare numbers, in µg/mL.

List MIC for every entry below, keeping the order given.
1. C[C@H](NCC(=O)N(CCCCN)CC(=O)N(CC(=O)N(CCCCN)CC(=O)N(CCCCN)CC(=O)N(CC(=O)N(CC(=O)N(CCCCN)CC(=O)N(CC(=O)N(CCCCN)CC(=O)N(CCCCN)CC(=O)N(CC(N)=O)[C@@H](C)c1ccccc1)[C@@H](C)c1ccccc1)[C@@H](C)c1ccccc1)[C@@H](C)c1ccccc1)[C@@H](C)c1ccccc1)c1ccccc1 [1B-NLys4,10, H-(Nspe-NLys-Nspe-NLys-NLys-Nspe)2-NH2] (H-[Nspe][Nlys][Nspe][Nlys][Nlys][Nspe][Nspe][Nlys][Nspe][Nlys][Nlys][Nspe]-NH2)
2. C[C@@H](c1ccccc1)N(CC(N)=O)C(=O)CN(CCCCN)C(=O)CN(CCCCN)C(=O)CN(C(=O)CN(C(=O)CN(CCCCN)C(=O)CN(C(=O)CN(CCCCN)C(=O)CN(CCCCN)C(=O)CN(C(=O)CN(C(=O)CNCCCCN)[C@@H](C)c1ccccc1)[C@@H](C)c1ccccc1)[C@@H](C)c1ccccc1)[C@@H](C)c1ccccc1)[C@@H](C)c1ccccc1 [1-NLys5,11, H-(NLys-Nspe-Nspe-NLys-NLys-Nspe)2-NH2] (H-[Nlys][Nspe][Nspe][Nlys][Nlys][Nspe][Nlys][Nspe][Nspe][Nlys][Nlys][Nspe]-NH2)

256
256

----------
tested on: E. coli ATCC 35218; format: cell-based
Numbered stars: 1 amine (or outer) side, 2 acyl side, 3 side chain; on linkers, the order of the positions; unused ones are H or OH. Square brackets hold non-standard residues; d marks the D form. Peptide text beside a SMILES is read from it. X1 = CC(C)[C@H](C)N(CC(=O)[*:2])[*:1]; Nspe = C[C@H](NCC(=O)O)c1ccccc1; Nlys = NCCCCNCC(=O)O
Assign MIC E. coli to each entry below.
One number for each entry, in µM.

# count of solved cases: 3
1. C[C@H](NCC(=O)N(CC(=O)N(CCCCN)CC(=O)N(CC(=O)N(CCCCN)CC(=O)N(CC(=O)N(CCCCN)CC(=O)N(CC(=O)N(CC(=O)N(CC(=O)N(CC(=O)N(CCCCN)CC(N)=O)[C@@H](C)c1ccccc1)[C@@H](C)c1ccccc1)[C@@H](C)c1ccccc1)[C@@H](C)c1ccccc1)[C@@H](C)c1ccccc1)[C@@H](C)c1ccccc1)[C@@H](C)c1ccccc1)c1ccccc1 [Peptoid 1scr, H-(Nspe)2-(NLys-Nspe)3-(Nspe)3-NLys-NH2] (H-[Nspe][Nspe][Nlys][Nspe][Nlys][Nspe][Nlys][Nspe][Nspe][Nspe][Nspe][Nlys]-NH2) = 6.3
2. C[C@@H](c1ccccc1)N(CC(N)=O)C(=O)CN(C(=O)CN(CCCCN)C(=O)[C@@H]1CCCN1C(=O)CN(C(=O)CN(CCCCN)C(=O)CN(C(=O)CN(C(=O)CN(CCCCN)C(=O)CN(C(=O)CN(C(=O)CNCCCCN)[C@@H](C)c1ccccc1)[C@@H](C)c1ccccc1)[C@@H](C)c1ccccc1)[C@@H](C)c1ccccc1)[C@@H](C)c1ccccc1)[C@@H](C)c1ccccc1 [Peptoid 1-Pro9] (H-[Nlys][Nspe][Nspe][Nlys][Nspe][Nspe][Nlys][Nspe]P[Nlys][Nspe][Nspe]-NH2) = 12.5
3. CC(C)[C@H](C)N(CC(=O)N(CC(=O)N(CCCCN)CC(=O)N(CC(=O)N(CC(=O)N(CCCCN)CC(=O)N(CC(=O)N(CC(=O)N(CCCCN)CC(=O)N(CC(=O)N(CC(N)=O)[C@@H](C)c1ccccc1)[C@@H](C)C(C)C)[C@@H](C)c1ccccc1)[C@@H](C)C(C)C)[C@@H](C)c1ccccc1)[C@@H](C)C(C)C)[C@@H](C)c1ccccc1)C(=O)CNCCCCN [1-Nsdp2.5.8.11, H-(NLys-Nsdp-Nspe)4-NH2] (H-[Nlys][X1][Nspe][Nlys][X1][Nspe][Nlys][X1][Nspe][Nlys][X1][Nspe]-NH2) = 12.5

Now for a further compound.
Which measured MIC E. coli value corresponds to C[C@@H](c1ccccc1)N(CC(N)=O)C(=O)CN(C(=O)CN(CCCCN)C(=O)CN(C(=O)CN(C(=O)CN(CCCCN)C(=O)CN(C(=O)CN(C(=O)CN(CCCCN)C(=O)CN(C(=O)CN(C(=O)CNCCCCN)[C@@H](C)c1ccccc1)[C@@H](C)c1ccccc1)[C@@H](C)c1ccccc1)[C@@H](C)c1ccccc1)[C@@H](C)c1ccccc1)[C@@H](C)c1ccccc1)[C@@H](C)c1ccccc1 [Peptoid 1, H-(NLys-Nspe-Nspe)4-NH2] (H-[Nlys][Nspe][Nspe][Nlys][Nspe][Nspe][Nlys][Nspe][Nspe][Nlys][Nspe][Nspe]-NH2) ?
6.3

----------
test system: S. aureus C623 (MRSA); experiment: microbe, parasite or virus in culture; details: C623
Numbered stars: 1 amine (or outer) side, 2 acyl side, 3 side chain; on linkers, the order of the positions; unused ones are H or OH. Square brackets hold non-standard residues; d marks the D form. Peptide text beside a SMILES is read from it. X1 = CC(C)[C@H](C)N(CC(=O)[*:2])[*:1]; Nspe = C[C@H](NCC(=O)O)c1ccccc1; Nlys = NCCCCNCC(=O)O
Assign MIC to each entry below.
Numbers only, in µg/mL.

List MIC for every entry below, keeping the order given.
1. C[C@@H](c1ccccc1)N(CC(N)=O)C(=O)CN(Cc1ccccc1)C(=O)CN(CCCCN)C(=O)CN(Cc1ccccc1)C(=O)CN(Cc1ccccc1)C(=O)CN(CCCCN)C(=O)CN(Cc1ccccc1)C(=O)CN(Cc1ccccc1)C(=O)CN(CCCCN)C(=O)CN(Cc1ccccc1)C(=O)CN(Cc1ccccc1)C(=O)CNCCCCN
2. CC(C)[C@H](C)N(CC(=O)N(CC(=O)N(CCCCN)CC(=O)N(CC(=O)N(CC(=O)N(CCCCN)CC(=O)N(CC(=O)N(CC(=O)N(CCCCN)CC(=O)N(CC(=O)N(CC(N)=O)[C@@H](C)c1ccccc1)[C@@H](C)C(C)C)[C@@H](C)c1ccccc1)[C@@H](C)C(C)C)[C@@H](C)c1ccccc1)[C@@H](C)C(C)C)[C@@H](C)c1ccccc1)C(=O)CNCCCCN [1-Nsdp2.5.8.11, H-(NLys-Nsdp-Nspe)4-NH2] (H-[Nlys][X1][Nspe][Nlys][X1][Nspe][Nlys][X1][Nspe][Nlys][X1][Nspe]-NH2)
3. C[C@@H](c1ccccc1)N(CC(N)=O)C(=O)CN(C(=O)CN(CCCCN)C(=O)CN(C(=O)CN(C(=O)CN(CCCCN)C(=O)CN(C(=O)CN(C(=O)CN(CCCCN)C(=O)[C@@H]1CCCN1C(=O)CN(C(=O)CNCCCCN)[C@@H](C)c1ccccc1)[C@@H](C)c1ccccc1)[C@@H](C)c1ccccc1)[C@@H](C)c1ccccc1)[C@@H](C)c1ccccc1)[C@@H](C)c1ccccc1 [Peptoid 1-Pro3, H-NLys-Nspe-L-Pro-(NLys-Nspe-Nspe)3-NH2] (H-[Nlys][Nspe]P[Nlys][Nspe][Nspe][Nlys][Nspe][Nspe][Nlys][Nspe][Nspe]-NH2)

1: 8; 2: 8; 3: 4

----------
test system: K. pneumonia 63575 (ESBL); assay: microbe, parasite or virus in culture
Square brackets hold non-standard residues; d marks the D form. Peptide text beside a SMILES is read from it. Nspe = C[C@H](NCC(=O)O)c1ccccc1; Nphe = O=C(O)CNCc1ccccc1; Nlys = NCCCCNCC(=O)O
Assign MIC to each entry below.
Answers are plain numbers, in µg/mL.

# count of solved cases: 3
1) C[C@@H](c1ccccc1)N(CC(N)=O)C(=O)CN(C(=O)CN(CCCCN)C(=O)[C@@H]1CCCN1C(=O)CN(C(=O)CN(CCCCN)C(=O)CN(C(=O)CN(C(=O)CN(CCCCN)C(=O)CN(C(=O)CN(C(=O)CNCCCCN)[C@@H](C)c1ccccc1)[C@@H](C)c1ccccc1)[C@@H](C)c1ccccc1)[C@@H](C)c1ccccc1)[C@@H](C)c1ccccc1)[C@@H](C)c1ccccc1 [Peptoid 1-Pro9] (H-[Nlys][Nspe][Nspe][Nlys][Nspe][Nspe][Nlys][Nspe]P[Nlys][Nspe][Nspe]-NH2) = 64
2) C[C@@H](c1ccccc1)N(CC(N)=O)C(=O)CN(CCCCN)C(=O)CN(CCCCN)C(=O)CN(C(=O)CN(C(=O)CN(CCCCN)C(=O)CN(C(=O)CN(CCCCN)C(=O)CN(CCCCN)C(=O)CN(C(=O)CN(C(=O)CNCCCCN)[C@@H](C)c1ccccc1)[C@@H](C)c1ccccc1)[C@@H](C)c1ccccc1)[C@@H](C)c1ccccc1)[C@@H](C)c1ccccc1 [1-NLys5,11, H-(NLys-Nspe-Nspe-NLys-NLys-Nspe)2-NH2] (H-[Nlys][Nspe][Nspe][Nlys][Nlys][Nspe][Nlys][Nspe][Nspe][Nlys][Nlys][Nspe]-NH2) = 128
3) C[C@H](NCC(=O)N(CCCCN)CC(=O)N(CC(=O)N(CCCCN)CC(=O)N(CCCCN)CC(=O)N(CC(=O)N(CC(=O)N(CCCCN)CC(=O)N(CC(=O)N(CCCCN)CC(=O)N(CCCCN)CC(=O)N(CC(N)=O)[C@@H](C)c1ccccc1)[C@@H](C)c1ccccc1)[C@@H](C)c1ccccc1)[C@@H](C)c1ccccc1)[C@@H](C)c1ccccc1)c1ccccc1 [1B-NLys4,10, H-(Nspe-NLys-Nspe-NLys-NLys-Nspe)2-NH2] (H-[Nspe][Nlys][Nspe][Nlys][Nlys][Nspe][Nspe][Nlys][Nspe][Nlys][Nlys][Nspe]-NH2) = 128

Now for a further molecule.
Which measured MIC value corresponds to C[C@@H](c1ccccc1)N(CC(=O)N(CC(=O)N(CCCCN)CC(=O)N(CC(=O)N(CC(=O)N(CCCCN)CC(=O)N(CC(=O)N(CC(=O)N(CCCCN)CC(=O)N(CC(=O)N(CC(N)=O)Cc1ccccc1)Cc1ccccc1)Cc1ccccc1)Cc1ccccc1)Cc1ccccc1)Cc1ccccc1)Cc1ccccc1)C(=O)CNCCCCN [Peptoid 1ach-Nspe2, H-(NLys-Nspe-Npm)- (NLys-Npm-Npm)3-NH2] (H-[Nlys][Nspe][Nphe][Nlys][Nphe][Nphe][Nlys][Nphe][Nphe][Nlys][Nphe][Nphe]-NH2) ?
32
